test-system: Tyrosine-protein kinase Yes (Homo sapiens)
assay-remarks: qHTS for small molecule inhibitors of Yes1 kinase: Primary Screen (AID 686947); further: nearly all actives have a fitted effect of over 60% in size; further: potency means the concentration at half of the fitted maximal effect
test-conditions: Yes1 kinase biochemical qHTS inhibition; series mostly up to 76.9 µM
Records with an inconclusive call do not appear. Active and inactive are the calls of the source. The call rests on the fitted dose curve; in most records, active means well fitted inhibition curve with a large enough effect; inconclusive means small, poorly fitted or top-dose-only effect; inactive means no such curve, though single readings can be large or run the other way.
parameter-measured: Potency

CC(C)(CO)CNC(=O)c1ccc2[nH]c(O)c(N=Nc3ccc(S(N)(=O)=O)cc3)c2c1 ... 2.32 µM (active)
Cc1ccc(O)cc1Nc1ccnc2ccc(S(C)(=O)=O)cc12 ... 0.0021 µM (active)
CCCN(CCS(C)(=O)=O)Cc1ccc(-c2ccc3ncnc(Nc4ccc(OCc5cccc(F)c5)c(Cl)c4)c3c2)o1 ... 6.54 µM (active)
CC1=C(C(=O)Nc2ccc3n[nH]c(C)c3c2)C(c2ccc(C(F)(F)F)cc2)CC(=O)N1 (centres undefined) ... 6.54 µM (active)
O=C(OC1CNC(C#Cc2cc3ncnc(Nc4ccc5c(cnn5Cc5ccccc5)c4)c3s2)C1)N1CCOCC1 (centres undefined) ... 1.04 µM (active)

Could I get Potency for every one of these entries?
1. NS(=O)(=O)c1ccc(N=Nc2c(O)[nH]c3ccc(C(=O)NCCc4cnc[nH]4)cc23)cc1
2. O=C(OC1CNC(C#Cc2cc3ncnc(Nc4ccc(OCc5cccc(F)c5)c(Cl)c4)c3s2)C1)N1CCOCC1 (centres undefined)
3. CN(C)c1ccc2[nH]c(O)c(C=Nc3ccc(S(N)(=O)=O)cc3)c2c1
4. NCc1ccc(-n2c(-c3nonc3N)nc3cnccc32)cc1
5. Cc1nnc(-c2ccc(C)c(-c3ccc(C(=O)NCc4ccc(Cl)cc4)cc3)c2)o1
6. COC(=O)c1sc(-n2cnc3cc(OC)c(OC)cc32)cc1OCc1ccccc1C(F)(F)F
7. CC(C)c1ccc2c(N=Nc3ccc(S(N)(=O)=O)cc3)c(O)[nH]c2c1

Found:
2.6 µM (active)
6.54 µM (active)
4.63 µM (active)
inactive
inactive
0.654 µM (active)
inactive

Quick request: Potency for each listed item, please.
1. CN1CCN(Cc2ccc(-c3cc4ncnc(Nc5ccc(OCc6cccc(F)c6)c(Cl)c5)c4s3)o2)CC1
2. COc1ccc2c(-c3ccnc(Nc4cccc(OC(F)(F)F)c4)n3)cnn2n1

Found:
1. 0.823 µM (active)
2. 26 µM (active)
